Origin of measurements: ChEMBL document CHEMBL1909294

# Tested on: Hepatotoxicity
Readout type: HepSE_jaundice
Give the figure by itself; no unit, no explanation.

### Prompt // lookup HepSE_jaundice | system=Hepatotoxicity | key= CC1=C(C(=O)O)N2C(=O)[C@@H](NC(=O)[C@H](N)c3ccc(O)cc3)[C@H]2SC1
### Response 0

### Prompt And then CC(=O)N[C@@H](CS)C(=O)O , what is it?
### Response 0

### Prompt And then CN(C)[C@@H]1C(O)=C(C(N)=O)C(=O)[C@@]2(O)C(O)=C3C(=O)c4c(O)cccc4[C@@](C)(O)[C@H]3[C@H](O)[C@@H]12 , what is it?
### Response 0

### Prompt And then COC(=O)[C@@H]1CC2=CC(=O)CC[C@]2(C)[C@@]23O[C@@H]2C[C@@]2(C)[C@@H](CC[C@@]24CCC(=O)O4)[C@H]13 , what is it?
### Response 0

### Prompt And then COc1cc2c(cc1OC)C(=O)C(CC1CCN(Cc3ccccc3)CC1)C2 (stereo not given) , what is it?
### Response 1

### Prompt And then C/C(=C\C(=O)OCCCCCCCCC(=O)O)C[C@@H]1OC[C@H](C[C@@H]2O[C@H]2[C@@H](C)[C@H](C)O)[C@@H](O)[C@H]1O , what is it?
### Response 0

### Prompt And then O=C(CCCN1CCC(O)(c2ccc(Cl)cc2)CC1)c1ccc(F)cc1 , what is it?
### Response 1

====

Values of HepSE_hepatic failure reported for Hepatotoxicity appear below.
Give the figure by itself; no unit, no explanation.

{"columns": ["Compound", "HepSE_hepatic failure"],
 "data": [
  ["COc1ccccc1OCC(O)CN1CCN(CC(=O)Nc2c(C)cccc2C)CC1 (stereo not drawn) [RANOLAZINE]", 0],
  ["CC(C)C(=O)OCC(=O)[C@@]12O[C@H](C3CCCCC3)O[C@@H]1C[C@H]1[C@@H]3CCC4=CC(=O)C=C[C@]4(C)[C@H]3[C@@H](O)C[C@@]12C [CICLESONIDE]", 0],
  ["O=C1C(O)=C([C@H]2CC[C@H](c3ccc(Cl)cc3)CC2)C(=O)c2ccccc21 [ATOVAQUONE]", 1]
]}

### Prompt Consider the compound shown here: CC1(C)S[C@@H]2[C@H](NC(=O)COc3ccccc3)C(=O)N2[C@H]1C(=O)O [PENICILLIN V] What is its recorded HepSE_hepatic failure?
### Response 0

### Prompt And then CCN[C@H]1CN(CCCOC)S(=O)(=O)c2sc(S(N)(=O)=O)cc21 [BRINZOLAMIDE] , what is it?
### Response 0

### Prompt And then O=C1CC2(CCCC2)CC(=O)N1CCCCN1CCN(c2ncccn2)CC1 [BUSPIRONE] , what is it?
### Response 0

### Prompt And then O=C1CN2Cc3c(ccc(Cl)c3Cl)N=C2N1 [ANAGRELIDE] , what is it?
### Response 0

### Prompt And then Cc1nc2ccc(CN(C)c3ccc(C(=O)N[C@@H](CCC(=O)O)C(=O)O)s3)cc2c(=O)[nH]1 [RALTITREXED] , what is it?
### Response 1

====

# Test system: Hepatotoxicity
# Recorded conditions: Liver; also: call rule not given here
// reported HepSE_jaundice for each item listed

Answered cases to consult:
{"columns": ["Compound", "HepSE_jaundice"],
 "data": [
  ["O=C1CN(/N=C/c2ccc([N+](=O)[O-])o2)C(=O)N1", 1],
  ["Nc1c2c(nc3ccccc13)CCCC2", 0],
  ["NC1=NCC2c3ccccc3Cc3ccccc3N12 (stereo not given) [EPINASTINE]", 0],
  ["CN(C/C=C/c1ccccc1)Cc1cccc2ccccc12", 0],
  ["OC(Cn1cncn1)(Cn1cncn1)c1ccc(F)cc1F", 1]
]}

### Prompt Consider the compound shown here: Clc1ccccc1CN1CCc2sccc2C1 What is its recorded HepSE_jaundice?
### Response 1

### Prompt And then CCN(CC)CC(=O)Nc1c(C)cccc1C , what is it?
### Response 0

### Prompt And then O=C([O-])O.[Na+] [SODIUM BICARBONATE] , what is it?
### Response 0
